- system-name: UniProt:P50281
measured-property: IC50

Can you look up IC50 on UniProt:P50281 for Cc1cccc(N2CCN(C(=O)C3CCN(c4ccc(S(=O)(=O)C5(C(=O)NO)CCOCC5)cc4)CC3)CC2)c1C ? > 10 µM

====

The compounds below have reported IC50 for UniProt:P45452.
The response must be a number in nM with no trailing unit.

# input compound: Cc1cccc(N2CCN(C(=O)C3CCN(c4ccc(S(=O)(=O)C5(C(=O)NO)CCN(C6CC6)CC5)cc4)CC3)CC2)c1C ; wanted: its IC50 27.7

Now give it for COCCN1CCN(C(=O)C2CCN(c3ccc(S(=O)(=O)C4(C(=O)NO)CCOCC4)cc3)CC2)CC1 too. 45

Queued: COCCN1CCC(C(=O)NO)(S(=O)(=O)c2ccc(N3CCC(C(=O)N4CC(C)NC(C)C4)CC3)cc2)CC1 (centres undefined) 50

Next up: C[C@@H]1COC[C@H](C)N1C(=O)C1CCN(c2ccc(S(=O)(=O)C3(C(=O)NO)CCOCC3)cc2)CC1 18.1

====

These records show pIC50 for Collagenase 3 (Homo sapiens).
Quick note: pIC50 means taking -log10 of the concentration in moles per liter.

Tell me the measured pIC50 of C#CCN(C)C(=O)C1CCN(c2ccc(S(=O)(=O)C3(C(=O)NO)CCOCC3)cc2)CC1 , please. 7.61

Same question, O=C(C1CCN(c2ccc(S(=O)(=O)C3(C(=O)NO)CCOCC3)cc2)CC1)N1CCN(CCc2ccccc2)CC1 this time 7.60

Same question, COCCN1CCC(C(=O)NO)(S(=O)(=O)c2ccc(N3CCC(C(=O)N4CCN(c5cccc(C)c5C)CC4)CC3)cc2)CC1 this time 7.15

Follow-up item: CN(Cc1ccccc1)C(=O)C1CCN(c2ccc(S(=O)(=O)C3(C(=O)NO)CCN(C4CC4)CC3)cc2)CC1 7.70

Ref: ChEMBL document CHEMBL1158638
